- ASSAYED_TARGET: HLA-A02.01 (Homo sapiens, UniProt P04439, D140Y/D185E/D98H/E176V/E277Q/G131W/G231S/I119V/I121R/I166T/I218V/L300P/L318F/N151K/N90K/P208A/P217A/Q86G/Q94H/R138H/R169H/T345S)
- EXPERIMENT: Class I MHC peptide binding affinity (displacement of radiolabeled reference peptide)
- RECORDED_CONDITIONS: allele A02.01; read-out: Observed Affinity (IC50; (nM))
Where a SMILES comes first, the peptide text is derived from it.
Labelling: IC50 reported below 1000 nM becomes true; at or above becomes false.

- COMPOUND: "CSCC[C@H](NC(=O)[C@H](CCC(=O)O)NC(=O)[C@H](CCCNC(=N)N)NC(=O)[C@H](CC(C)C)NC(=O)[C@H](Cc1ccc(O)cc1)NC(=O)[C@H](CC(N)=O)NC(=O)[C@H](CC(C)C)NC(=O)[C@H](CC(C)C)NC(=O)[C@@H](N)CO)C(=O)O"
  CAT: "true"
- COMPOUND: "CC[C@H](C)[C@H](NC(=O)[C@@H]1CCCN1C(=O)[C@H](CCCNC(=N)N)NC(=O)[C@H](CCCNC(=N)N)NC(=O)[C@H](CC(N)=O)NC(=O)[C@H](CCSC)NC(=O)[C@H](CO)NC(=O)CNC(=O)[C@H](CCSC)NC(=O)[C@@H](N)CS)C(=O)O (H-CMGSMNRRPI-OH; N-terminus and C-terminus assumed)"
  CAT: "false"
- COMPOUND: "CC[C@H](C)[C@H](NC(=O)[C@H](CCC(N)=O)NC(=O)[C@H](Cc1c[nH]c2ccccc12)NC(=O)[C@H](Cc1ccccc1)NC(=O)CNC(=O)[C@H](CS)NC(=O)[C@H](CC(C)C)NC(=O)[C@H](C)NC(=O)[C@@H](N)Cc1ccccc1)C(=O)O (H-FALCGFWQI-OH; N-terminus and C-terminus assumed)"
  CAT: "true"
- COMPOUND: "CC[C@H](C)[C@H](N)C(=O)N[C@@H](CCC(N)=O)C(=O)N[C@@H](CC(C)C)C(=O)N[C@@H](CCC(N)=O)C(=O)N[C@@H](CC(=O)O)C(=O)N[C@@H](CCCCN)C(=O)N[C@@H](Cc1ccccc1)C(=O)N[C@@H](CCC(=O)O)C(=O)N[C@@H](Cc1c[nH]cn1)C(=O)N[C@@H](CC(C)C)C(=O)O"
  CAT: "false"
- COMPOUND: "CSCC[C@H](NC(=O)[C@H](CCCCN)NC(=O)CNC(=O)[C@H](CC(N)=O)NC(=O)[C@H](CCC(N)=O)NC(=O)[C@@H](N)Cc1ccccc1)C(=O)N[C@@H](C)C(=O)N[C@@H](CC(C)C)C(=O)N[C@@H](CO)C(=O)N[C@@H](C)C(=O)O"
  CAT: "false"
- COMPOUND: "CC[C@H](C)[C@H](NC(=O)[C@H](Cc1ccc(O)cc1)NC(=O)[C@H](CC(C)C)NC(=O)[C@@H](N)CO)C(=O)N[C@H](C(=O)NCC(=O)N[C@@H](Cc1ccccc1)C(=O)N[C@@H](Cc1ccc(O)cc1)C(=O)NCC(=O)O)C(C)C (H-SLYIVGFYG-OH; N-terminus and C-terminus assumed)"
  CAT: "false"

Now turn to the next compound.
Ask | Strictly below 1000 nM: is that where IC50 of CC[C@H](C)[C@H](NC(=O)[C@@H](N)CCCCN)C(=O)N[C@H](C(=O)N[C@@H](CCC(=O)O)C(=O)N[C@@H](CCC(N)=O)C(=O)N[C@@H](CCC(=O)O)C(=O)N[C@@H](CCCCN)C(=O)N[C@@H](CC(=O)O)C(=O)N[C@@H](Cc1ccccc1)C(=O)N[C@@H](CC(C)C)C(=O)O)[C@@H](C)O (H-KITEQEKDFL-OH; N-terminus and C-terminus assumed) sits?
Reply | false

====

- ASSAYED_TARGET: HLA-A02.01 (Homo sapiens, UniProt P04439, D140Y/D185E/D98H/E176V/E277Q/G131W/G231S/I119V/I121R/I166T/I218V/L300P/L318F/N151K/N90K/P208A/P217A/Q86G/Q94H/R138H/R169H/T345S)
- EXPERIMENT: Class I MHC peptide binding affinity (displacement of radiolabeled reference peptide)
- RECORDED_CONDITIONS: allele A02.01; read-out: Observed Affinity (IC50; (nM))
- Method: In brief, MHCI complexes were prepared and bound to radiolabeled reference peptides. Peptides were incubated at varying concentrations with these complexes for 2 days, and the amount of remaining radiolabeled peptide bound to […] was measured using size exclusion gel-filtration.
Where a SMILES comes first, the peptide text is derived from it.
MEASURED_QUANTITY: IC50
# output: numeric value plus its unit

- COMPOUND: "CC(C)C[C@H](NC(=O)[C@H](CO)NC(=O)CNC(=O)[C@H](CC(C)C)NC(=O)[C@H](CO)NC(=O)[C@H](CCCNC(=N)N)NC(=O)[C@H](Cc1c[nH]c2ccccc12)NC(=O)[C@H](CCC(N)=O)NC(=O)[C@@H](N)C(C)C)C(=O)O (H-VQWRSLGSL-OH; N-terminus and C-terminus assumed)"
  EXPERIMENTAL_RESULT: "4730 nM"

Here is another compound to look at.
Ask | State the recorded IC50 for this entry: CSCC[C@H](NC(=O)[C@H](CC(C)C)NC(=O)[C@H](CCC(=O)O)NC(=O)[C@H](CCSC)NC(=O)[C@@H](N)CC(C)C)C(=O)N[C@@H](C)C(=O)NCC(=O)NCC(=O)N[C@@H](CC(=O)O)C(=O)N[C@@H](CC(C)C)C(=O)O (H-LMELMAGGDL-OH; N-terminus and C-terminus assumed)
Reply | 311 nM

====

- ASSAYED_TARGET: HLA-A02.01 (Homo sapiens, UniProt P04439, D140Y/D185E/D98H/E176V/E277Q/G131W/G231S/I119V/I121R/I166T/I218V/L300P/L318F/N151K/N90K/P208A/P217A/Q86G/Q94H/R138H/R169H/T345S)
- EXPERIMENT: Class I MHC peptide binding affinity (displacement of radiolabeled reference peptide)
- RECORDED_CONDITIONS: allele A02.01; read-out: Observed Affinity (IC50; (nM))
Where a SMILES comes first, the peptide text is derived from it.
MEASURED_QUANTITY: IC50 (nM)
Dear colleague, please return just the value in nM, with no unit written.

In the examples that follow, each entry is paired with its recorded IC50.
- COMPOUND: "CC[C@H](C)[C@H](N)C(=O)N[C@@H](CC(C)C)C(=O)N[C@@H](CC(C)C)C(=O)N1CCC[C@H]1C(=O)N[C@@H](CCC(=O)O)C(=O)N[C@@H](CC(=O)O)C(=O)N[C@H](C(=O)N1CCC[C@H]1C(=O)N1CCC[C@H]1C(=O)N[C@@H](CC(C)C)C(=O)O)[C@@H](C)O (H-ILLPEDTPPL-OH; N-terminus and C-terminus assumed)"
  IC50 / nM: 6.7
- COMPOUND: "CC[C@H](C)[C@H](NC(=O)[C@H](CO)NC(=O)[C@H](Cc1c[nH]c2ccccc12)NC(=O)[C@H](Cc1c[nH]cn1)NC(=O)[C@H](C)NC(=O)[C@@H]1CCCN1C(=O)[C@H](CCSC)NC(=O)[C@H](CC(C)C)NC(=O)[C@@H](N)CO)C(=O)O"
  IC50 / nM: 48
- COMPOUND: "CC[C@H](C)[C@H](NC(=O)[C@@H](N)Cc1ccccc1)C(=O)N[C@@H](CC(C)C)C(=O)N[C@@H](CCSC)C(=O)N[C@@H](CCC(=O)O)C(=O)N[C@@H](CC(C)C)C(=O)N[C@@H](CCSC)C(=O)N[C@@H](C)C(=O)NCC(=O)NCC(=O)O (H-FILMELMAGG-OH; N-terminus and C-terminus assumed)"
  IC50 / nM: 1580

Here is another compound to look at.
Ask | State the recorded IC50 for this entry: CSCC[C@H](NC(=O)[C@@H](N)C(C)C)C(=O)N[C@@H](C)C(=O)N[C@@H](Cc1ccc(O)cc1)C(=O)N[C@H](C(=O)N[C@@H](CCSC)C(=O)N[C@@H](C)C(=O)NCC(=O)N[C@H](C(=O)O)C(C)C)C(C)C (H-VMAYVMAGV-OH; N-terminus and C-terminus assumed)
Reply | 2

====

Below, each entry is listed alongside its reported IC50.
- ASSAYED_TARGET: HLA-A02.01 (Homo sapiens, UniProt P04439, D140Y/D185E/D98H/E176V/E277Q/G131W/G231S/I119V/I121R/I166T/I218V/L300P/L318F/N151K/N90K/P208A/P217A/Q86G/Q94H/R138H/R169H/T345S)
- EXPERIMENT: Class I MHC peptide binding affinity (displacement of radiolabeled reference peptide)
- RECORDED_CONDITIONS: allele A02.01; read-out: Observed Affinity (IC50; (nM))
- Experimental: In brief, MHCI complexes were prepared and bound to radiolabeled reference peptides. Peptides were incubated at varying concentrations with these complexes for 2 days, and the amount of remaining radiolabeled peptide bound to […] was measured using size exclusion gel-filtration.
Where a SMILES comes first, the peptide text is derived from it.
Dear colleague, please return just the value in nM, with no unit written.

In the examples that follow, each entry is paired with its recorded IC50.
- COMPOUND: "CSCC[C@H](NC(=O)[C@H](Cc1c[nH]cn1)NC(=O)[C@@H](NC(=O)[C@H](CC(C)C)NC(=O)[C@@H](NC(=O)[C@@H]1CCCN1C(=O)[C@H](C)NC(=O)[C@H](CC(C)C)NC(=O)[C@H](C)N)[C@@H](C)O)[C@@H](C)O)C(=O)O (H-ALAPTLTHM-OH; N-terminus and C-terminus assumed)"
  EXPERIMENTAL_RESULT: 59
- COMPOUND: "CC(C)C[C@H](NC(=O)[C@H](CC(C)C)NC(=O)[C@H](CC(C)C)NC(=O)[C@H](CC(=O)O)NC(=O)[C@H](CO)NC(=O)[C@H](CC(C)C)NC(=O)[C@@H]1CCCN1C(=O)[C@@H](NC(=O)[C@@H](N)C(C)C)C(C)C)C(=O)O (H-VVPLSDLLL-OH; N-terminus and C-terminus assumed)"
  EXPERIMENTAL_RESULT: 2550
- COMPOUND: "CSCC[C@H](NC(=O)[C@H](CC(C)C)NC(=O)[C@H](CO)NC(=O)[C@H](CC(C)C)NC(=O)[C@@H]1CCCN1C(=O)[C@H](CCC(N)=O)NC(=O)[C@H](CCSC)NC(=O)[C@H](CCC(N)=O)NC(=O)[C@@H](N)Cc1ccccc1)C(=O)O"
  EXPERIMENTAL_RESULT: 553
- COMPOUND: "CC(C)C[C@H](NC(=O)[C@H](CC(C)C)NC(=O)[C@H](CC(C)C)NC(=O)[C@H](CC(=O)O)NC(=O)[C@H](CS)NC(=O)[C@H](CC(C)C)NC(=O)[C@@H]1CCCN1C(=O)[C@@H](NC(=O)[C@@H](N)C(C)C)C(C)C)C(=O)O (H-VVPLCDLLL-OH; N-terminus and C-terminus assumed)"
  EXPERIMENTAL_RESULT: 1200
- COMPOUND: "CSCC[C@H](NC(=O)[C@H](CCC(=O)O)NC(=O)[C@H](CC(C)C)NC(=O)[C@H](CC(C)C)NC(=O)[C@H](CC(C)C)NC(=O)CNC(=O)[C@H](Cc1ccc(O)cc1)NC(=O)[C@H](CC(C)C)NC(=O)[C@@H]1CCCN1)C(=O)N[C@@H](CC(C)C)C(=O)O (H-PLYGLLLEML-OH; N-terminus and C-terminus assumed)"
  EXPERIMENTAL_RESULT: 797
- COMPOUND: "CSCC[C@H](NC(=O)[C@H](CCC(=O)O)NC(=O)[C@H](CC(C)C)NC(=O)[C@H](CC(C)C)NC(=O)[C@H](CC(C)C)NC(=O)[C@H](CC(=O)O)NC(=O)[C@H](CS)NC(=O)[C@H](CC(C)C)NC(=O)[C@@H]1CCCN1)C(=O)O (H-PLCDLLLEM-OH; N-terminus and C-terminus assumed)"
  EXPERIMENTAL_RESULT: 602
- COMPOUND: "CC(C)C[C@H](NC(=O)[C@H](CC(C)C)NC(=O)[C@H](CC(=O)O)NC(=O)[C@H](CO)NC(=O)[C@H](CC(C)C)NC(=O)[C@@H]1CCCN1C(=O)[C@@H](NC(=O)[C@@H](NC(=O)[C@@H](N)CC(N)=O)C(C)C)C(C)C)C(=O)O (H-NVVPLSDLL-OH; N-terminus and C-terminus assumed)"
  EXPERIMENTAL_RESULT: 916

Here is another compound to look at.
Ask | State the recorded IC50 for this entry: CC[C@H](C)[C@H](NC(=O)[C@H](CC(C)C)NC(=O)[C@@H](N)CCC(N)=O)C(=O)N[C@@H](CCSC)C(=O)N[C@@H](CCC(N)=O)C(=O)N[C@@H](CC(C)C)C(=O)N[C@@H](CCSC)C(=O)N1CCC[C@H]1C(=O)N[C@@H](Cc1ccccc1)C(=O)NCC(=O)O (H-QLIMQLMPFG-OH; N-terminus and C-terminus assumed)
Reply | 5930
